Kindly state growth inhibition for each of the entries shown.
procedureSummary: NCI Yeast Anticancer Drug Screen. Data for the mlh1 rad18 strain (AID 175)
recordedConditions: S. cerevisiae mlh1 rad18 strain growth inhibition; at 50.0 µM (retest, dose inferred, filed as 5.0); hits give high values
This is part of a sample that, as a whole, favours compounds with a hit. Of some 79,000 tested, about 15% had one in any assay.
Answers are plain numbers, in %.

Before answering, review these 6 worked examples.
- compound: "CC(C)Oc1ccc(Nc2ccccc2)cc1"
  quantityName: "growth inhibition"
  endpointResult: 20
- compound: "Nc1nc(N)c2c(Cl)c(CNc3ccc(Cl)c(Cl)c3)ccc2n1"
  quantityName: "growth inhibition"
  endpointResult: 98
- compound: "O=c1cc[nH]cc1"
  quantityName: "growth inhibition"
  endpointResult: 6
- compound: "CSc1ncnc2c1ncn2C1OC(CO)C(O)C1O (stereo not given)"
  quantityName: "growth inhibition"
  endpointResult: 0
- compound: "O=C(/C(=C\\c1ccc(Cl)c(Cl)c1)c1ccccc1)c1ccc(O)cc1"
  quantityName: "growth inhibition"
  endpointResult: 92
- compound: "O=C(NO)c1cccnc1"
  quantityName: "growth inhibition"
  endpointResult: 5

Return reported growth inhibition values for all items listed beneath this line.
1. C=C1C(=O)C23OC2C1CCC(=O)C1(C)CC[C@H](OC(C)=O)C(C)(C)[C@H]1CC3=O (stereo not given in full)
2. COc1c(CBr)c(CBr)c(OC)c2c1C(=O)c1ccccc1C2=O
3. CCN(CC)Cc1cc2[nH]c3c4ccc(Cl)cc4ncc3c2cc1OC (tested in a mixture with another compound)
4. c1ccc(-c2nc3ccccc3[nH]2)cc1

1. -1
2. 99
3. 74
4. 74

For every record below, what is its growth inhibition?
1. CC(=O)Nc1nc(N)c2ncn(C3OC(C(O)CO)C(O)C3O)c2n1 (stereo not given)
2. O=C(C(=Cc1ccccc1)C(=O)c1ccccc1)c1ccccc1
3. O=C1CCC(c2ccccc2)(C2(c3ccccc3)CCC(=O)O2)O1 (stereo not given)
4. CCCCCCCCCCCCCCCCOP(=O)(O)OP(=O)(O)OCC1OC(n2ccc(N)nc2=O)C(O)C1O (stereo not given)

3
94
47
95

Provide each entry's growth inhibition from the list below.
1. C=C1C(=O)OC2C[C@@]3(C)CCC[C@H](C)C3=CC12 (stereo not given in full) (tested in a mixture with another compound)
2. Nc1cc2ccccc2cc1Br
3. O=C1OC(c2ccccc2)C(c2ccccc2)=C1c1ccccc1 (stereo not given)
4. CC(=O)OC1OC(CI)C(OC(C)=O)C(OC(C)=O)C1OC(C)=O (stereo not given)
5. CCSC1=C(C)C(=O)c2ccccc2C1=O
6. Nc1ccc2cc3ccc(N)cc3nc2c1
7. CCSSC(=Nc1ccccc1)OCC(C)C

1: 98; 2: 82; 3: 90; 4: 25; 5: 62; 6: 51; 7: 82

Okay, here is my list. What is growth inhibition for each of these?
1. CC(C)(C)OC(=O)NCCc1cccc2c1oc1c(CCC(=O)O)cccc12
2. CC(C)(S)C(N)C(=O)O (stereo not given)
3. Cc1cccc(Cc2ccccc2Cl)c1O
4. CC(C)=CCC(O)C1=CC(=O)c2c(O)ccc(O)c2C1=O (stereo not given)

1. 96
2. -1
3. 81
4. 60

// batch mode: one growth inhibition value per listed entry
1. O=C1C=C(O)c2ccccc2C1=O.[Ag]
2. OC(CN1CCCCC1)c1cc(-c2ccc(Cl)cc2)nc2cc(Cl)ccc12 (stereo not given)
3. Cc1ccc(C(C)C)c2c1CN(CCN1COc3c(C(C)C)ccc(C)c3C1)CO2
4. CCOC(=O)C(CN)(c1ccccc1)c1ccccc1
5. CC1=CC(C)=Nc2ccc(Cl)cc2N1

1. 99
2. 99
3. 4
4. -10
5. 7

---

procedureSummary: NCI Yeast Anticancer Drug Screen. Data for the mec2-1 strain (AID 157)
recordedConditions: S. cerevisiae mec2-1 strain, at 5.0 µM (retest, dose inferred, filed as 0.5), hits give high values
About 79,000 compounds went through this panel and 15% of them were active in at least one assay; those are over-represented in the sample as a whole.
quantityName: growth inhibition (%)
Numbers only, in %.

- molecule: "O=C1CSC(=S)N1c1ccc(Cl)c(C(F)(F)F)c1"
  unitAnnotation: "%"
  endpointResult: 0
- molecule: "Cc1cc(/C=C/C2CCC3CC(C)CCC3N2CCO)c(C)n1-c1ccccc1 (stereo unspecified)"
  unitAnnotation: "%"
  endpointResult: 19
- molecule: "Clc1c(C(Cl)(Cl)Cl)nsc1N1CCCCC1"
  unitAnnotation: "%"
  endpointResult: 16
- molecule: "O=C(NNC(=O)c1ccccc1O)c1ccccc1O"
  unitAnnotation: "%"
  endpointResult: 2
- molecule: "O=c1c(Cl)c(Cl)cnn1CCCl"
  unitAnnotation: "%"
  endpointResult: 9
- molecule: "O=C1OC(CN2CCOCC2)CN1/N=C/c1ccc([N+](=O)[O-])o1 (stereo unspecified)"
  unitAnnotation: "%"
  endpointResult: 8

List the reported growth inhibition of each molecule below.
1. N#CC1Sc2ccccc2N1C(=O)OCc1ccccc1 (stereo unspecified)
2. Nc1nnc(/C=C/c2ccccc2)o1
3. CCCCCCCCCCCCCCCCCCOCC(O)CO (stereo unspecified)
4. CC(=O)OC1OC(CI)C(OC(C)=O)C(OC(C)=O)C1OC(C)=O (stereo unspecified)
5. Nc1ccccc1Oc1ccc(Cl)cc1Cl
6. CC[N+](CC)=c1ccc2nc3c(cc(N)c4ccccc43)oc-2c1
7. O=C(NCCCCCCNC(=O)n1cc(F)c(=O)[nH]c1=O)NCCCOCCOCCOCCOCCOCCOCCOCCOCCOCCOCCOCCOCCOCCOCCOCCOCCOCCOCCOCCOCCOCCCNC(=O)C(O)C(O)C(OC1OC(CO)C(O)C(O)C1O)C(O)CO (stereo unspecified)

1. 4
2. 8
3. -2
4. -1
5. 37
6. -1
7. 7

---

Kindly state growth inhibition for each of the entries shown.
procedureSummary: NCI Yeast Anticancer Drug Screen. Data for the mec2-1 strain (AID 157)
recordedConditions: S. cerevisiae mec2-1 strain, at 50.0 µM, hits give high values
About 79,000 compounds went through this panel and 15% of them were active in at least one assay; those are over-represented in the sample as a whole.
Give bare numbers, in %.

Study these solved cases before continuing.
- compound: "CC1CP(c2ccccc2)(c2ccccc2)(c2ccccc2)OC1(C(=O)c1ccccc1)c1ccccc1 (stereo not drawn)"
  growth inhibition / %: 99.3
- compound: "CC(C)(C)c1ccc(-c2c3ccccc3cc3ccccc23)cc1"
  growth inhibition / %: -4.85
- compound: "Cc1nc2cc(Cl)ccc2n1-c1ccccc1"
  growth inhibition / %: 17
- compound: "O=C1c2ccccc2-n2c1nc1ccccc1c2=O"
  growth inhibition / %: 57
- compound: "Oc1ccc(Cc2ccccc2)cc1"
  growth inhibition / %: 34

For each of the compounds below, state growth inhibition.
1. CCN1CCC(O)(/C=C/c2ccc(C)cc2)C(C(=O)/C=C/c2ccc(C)cc2)C1 (stereo not drawn)
2. CCCCCCCCC(Sc1n[nH]c(=O)[nH]c1=O)C(=O)OCC (stereo not drawn)
3. O=c1c(Cl)c(Cl)cnn1CCCl

1: 91.4; 2: 89.7; 3: 17.6

---

Exercise: state measured growth inhibition for each of the compounds provided.
procedureSummary: NCI Yeast Anticancer Drug Screen. Data for the sgs1 mgt1 strain (AID 161);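 further: 0% = growth of cultures given vehicle only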
recordedConditions: S. cerevisiae sgs1 mgt1 strain, at 50.0 µM (retest, dose inferred, filed as 5.0), hits give high values
Experimental: Growth inhibition of yeast strains with defined genetic alterations is measured as a screen for potential anti-cancer activity. Selected strains with alterations in DNA damage repair or cell cycle control were exposed to compounds and growth inhibition was measured relative to vehicle treated controls. The strain used in this assay is sgs1 mgt1
About 79,000 compounds went through this panel and 15% of them were active in at least one assay; those are over-represented in the sample as a whole.
Numbers only, in %.

Field: example entries. Status: answers known.
- compound: "CCCc1cc(=O)oc2c3c(c4c(c12)OC(C)(C)CC4)O[C@@H](C)[C@H](C)[C@H]3O"
  unitAnnotation: "%"
  growth inhibition: 93
- compound: "O=c1[nH]c(=O)n(C2OC(CO)C(O)C2O)cc1F (centres undefined)"
  unitAnnotation: "%"
  growth inhibition: 98
- compound: "O=C(N/C=C/C=C/Sc1ccccc1)OCc1ccccc1"
  unitAnnotation: "%"
  growth inhibition: 98
- compound: "Cc1ccc(NCCN(C)C)c2c(=O)c3cc(O)ccc3sc12"
  unitAnnotation: "%"
  growth inhibition: 99
- compound: "CC(=O)Nc1ccc(S(=O)(=O)N(CCO)CCO)cc1"
  unitAnnotation: "%"
  growth inhibition: -4

# batch: return growth inhibition for each of the 2 compounds below
1. Oc1cc2c(cc1C(c1ccc3c(c1)OCO3)N1CCN(C(c3ccc4c(c3)OCO4)c3cc4c(cc3O)OCO4)CC1)OCO2 (centres undefined)
2. O=C(CC(=O)CC(O)(c1ccccc1)c1ccccc1)CC(=O)c1ccccc1

1: 98; 2: 98

Give one value of growth inhibition per listed compound.
1. c1ccc(-c2conc2-c2ccccc2)cc1
2. C=C1C(=O)OC2CC(C)C3C4OC4C(O)C3(C)C(O)C12 (centres undefined)

90
8

Give growth inhibition for each listed item.
1. O=C1c2ccccc2C(=O)c2c(O)c(O)cc(O)c21
2. CC(C)CC(Nc1c(O)ccc2ccccc12)C(=O)O (centres undefined)
3. CC1=NC(=Cc2ccc([N+](=O)[O-])cc2)C(=O)N1n1c(-c2ccccc2)nc2ccccc2c1=O

1. 97
2. 99
3. 7

Each compound below has a reported value. Please supply its growth inhibition.
1. CCCCCCCCCCNC1CC(OC2CC(O)(C(O)CO)Cc3c(O)c4c(c(O)c32)C(=O)c2c(OC)cccc2C4=O)OC(C)C1O (centres undefined)
2. COc1cc2c(c(OC)c1OC)-c1ccc(SC)c(=O)cc1C(NC(=O)c1ccccc1)CC2 (centres undefined)

98
81

Reference for the values: PubChem BioAssay (NCI)
